Below, each entry is listed alongside its reported OD490.
# target_or_system: T1, M4
# T1 construct: also called PD1 mutant M4
# assay_remarks: scFv-phage ELISA

binder	OD490
PD1-41C9 (antibody, V domains shown, scFv-phage in the screening ELISA; whole IgG in the other assays) VH: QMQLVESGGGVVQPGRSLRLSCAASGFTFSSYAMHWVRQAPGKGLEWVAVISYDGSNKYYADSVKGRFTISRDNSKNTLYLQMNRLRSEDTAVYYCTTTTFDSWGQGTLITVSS VL: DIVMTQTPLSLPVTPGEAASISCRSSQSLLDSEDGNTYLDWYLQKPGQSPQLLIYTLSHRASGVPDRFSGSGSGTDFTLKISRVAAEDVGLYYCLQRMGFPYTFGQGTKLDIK	3.2
PD1-45F1 (antibody, V domains shown, scFv-phage in the screening ELISA; later whole IgG) VH: QVQLVQSGAEVKKPGASVKLSCKASGYTFNSYYVHWVRQAPGQGLEWMGIINPSDGSATYAQKFQGRVTMTSDTSTSSVYMELSSLRSEDTAVYYCARDGNYYDSRGYYYDTFDMWGQGTLITVSS VL: SYELTQDPAVSVALGQTVRITCQGDSLRTYYASWYQQKPGQAPILVIYGKNNRPSGIPDRFSGSSSGNTASLTITAAQAEDEADYYCNSRDSSGKSLVFGGGTKLTVL	3.9
PD1-44B5 (antibody, V domains shown, scFv-phage in the screening ELISA; later whole IgG) VH: QVQLVESGGGVVQPGRSLRLSCAASGFTFSSYAMHWVRQAPGKGLEWVAVISYDGSNKYYADSVKGRFTISRDNSKNTLYLQMNSLRAEDTAVYYCARLMHTFSVQYFLDVWGQGTTVTVSS VL: QFVLTQSPSASGTPGQNIVISCSASTFNIGTTTVNWYQRLPGTAPKLLIYNYDQRPSGVPDRFSGSKSGTSASLAISGLQSEDEADYYCAAWDDSLNAWLFGGGTKLTVL	3.6
PD1-52E8 (antibody, V domains shown, scFv-phage in the screening ELISA; whole IgG in the other assays) VH: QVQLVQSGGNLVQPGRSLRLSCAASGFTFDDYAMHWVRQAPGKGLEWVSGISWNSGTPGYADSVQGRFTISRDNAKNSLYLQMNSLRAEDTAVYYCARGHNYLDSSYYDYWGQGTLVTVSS VL: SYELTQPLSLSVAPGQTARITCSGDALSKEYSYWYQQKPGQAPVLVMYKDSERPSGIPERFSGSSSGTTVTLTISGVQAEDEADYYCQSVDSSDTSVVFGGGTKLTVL	3.7
PD1-51D9 (antibody, V domains shown, scFv-phage in the screening ELISA; whole IgG in the other assays) VH: QVQLVESGAEVKKPGASVKLSCKASGYTFSSYWMHWVRQAPGQRLEWMGEINPGNGHTNYNEKFKSRVTITVDKSASTAYMELSSLRSEDTAVYYCAREGDGSYWGYFDSWGQGTPITVSS VL: DIVMTQTPLSLPVTPGEPASISCRSSQSLLHSNGNNYLDWYLQKPGQSPQLLIYLGSYRASGVPDRFSGSGSGTDFTLKISRVEAEDVGLYYCMQGLQIPSTFGPGTKVDIK	1.1
PD1-48A9 (antibody, V domains shown, scFv-phage in the screening ELISA; whole IgG in the other assays) VH: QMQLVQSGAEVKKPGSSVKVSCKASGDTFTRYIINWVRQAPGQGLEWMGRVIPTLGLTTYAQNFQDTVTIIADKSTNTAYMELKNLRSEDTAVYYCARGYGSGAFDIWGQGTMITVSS VL: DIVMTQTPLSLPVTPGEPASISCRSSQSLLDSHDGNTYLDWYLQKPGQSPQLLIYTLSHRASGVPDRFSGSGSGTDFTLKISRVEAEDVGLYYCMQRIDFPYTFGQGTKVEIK	3.9
PD1-45D6 (antibody, V domains shown, scFv-phage in the screening ELISA; whole IgG in the other assays) VH: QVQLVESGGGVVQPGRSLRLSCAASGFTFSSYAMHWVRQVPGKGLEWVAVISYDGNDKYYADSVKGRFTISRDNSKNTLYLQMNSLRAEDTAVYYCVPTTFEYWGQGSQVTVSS VL: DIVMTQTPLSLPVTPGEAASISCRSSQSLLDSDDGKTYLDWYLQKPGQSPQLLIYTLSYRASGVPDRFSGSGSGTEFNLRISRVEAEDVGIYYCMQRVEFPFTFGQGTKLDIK	3.9
